# System: NB14 (Neuroblastoma)
# MEASUREMENT_PROTOCOL: Bliss excess, mean over the matrix (fraction); higher = more synergy
# Bliss excess per entry
Lab note: jot down the number only; don't add units.

Notebook: pull reported Bliss excess for NB14 (Neuroblastoma), entry COc1cc2ncnc(Nc3ccc(F)c(Cl)c3)c2cc1OCCCN1CCOCC1 [Gefitinib] + CC(C)n1c(=O)n(C)c2cnc3cc(F)c(-c4ccc(OCCCN5CCCCC5)nc4)cc3c21 [AZD1390] (first compound max 10 µM, 7x7, partner max 0.3 µM) -0.0145

Request body: readout Bliss excess, system NB14 (Neuroblastoma), query Cc1c2c(nn1C)CSCc1cc(n(C)n1)CSc1cc(c3ccccc3c1)OCCCc1c(C(=O)O)n(C)c3c-2c(Cl)ccc13 [AZD5991] + C1CN(CCC1(C(=O)N[C@@H](CCO)C2=CC=C(C=C2)Cl)N)C3=NC=NC4=C3C=CN4 [Capivasertib] (first compound max 1 µM, 7x7, partner max 3 µM) . Return the value. 0.0283

What Bliss excess appears in the records for this compound with NB14 (Neuroblastoma)? CN(CCO)CC[C@H](CSc1ccccc1)Nc1ccc(S(=O)(=O)NC(=O)c2ccc(N3CCC([C@@H](O)c4ccccc4-c4ccc(Cl)cc4)CC3)cc2)cc1S(=O)(=O)C(F)(F)F [AZD4320] + CS(=O)(=O)CCNCc1ccc(-c2ccc3ncnc(Nc4ccc(OCc5cccc(F)c5)c(Cl)c4)c3c2)o1 [Lapatinib] (first compound max 1 µM, 7x7, partner max 10 µM) 0.0356

###

# Test system: RKO (Colorectal Carcinoma)
# MEASUREMENT_PROTOCOL: Bliss excess, mean over the matrix (fraction); higher = more synergy
QUANTITY: Bliss excess
# output: bare number, no unit

Look over these answered cases.
CC1(C)CCC(CN2CCN(c3ccc(C(=O)NS(=O)(=O)c4ccc(NCC5CCOCC5)c([N+](=O)[O-])c4)c(Oc4cnc5[nH]ccc5c4)c3)CC2)=C(c2ccc(Cl)cc2)C1 [Venetoclax] + Cn1cnc2c(F)c(Nc3ccc(Br)cc3Cl)c(C(=O)NOCCO)cc21 [Selumetinib] (first compound max 1 µM, 7x7, partner max 3 µM)
0.0171
N#Cc1cnc(Nc2cc(NC[C@H]3CNCCO3)c(C(F)(F)F)cn2)cn1 [SRA737] + Nc1ccn([C@@H]2O[C@H](CO)[C@@H](O)C2(F)F)c(=O)n1 [Gemcitabine] (first compound max 10 µM, 7x7, partner max 0.3 µM)
-0.0179
Cc1c2c(nn1C)CSCc1cc(n(C)n1)CSc1cc(c3ccccc3c1)OCCCc1c(C(=O)O)n(C)c3c-2c(Cl)ccc13 [AZD5991] + CC1(C)CCC(CN2CCN(c3ccc(C(=O)NS(=O)(=O)c4ccc(NCC5CCOCC5)c([N+](=O)[O-])c4)c(Oc4cnc5[nH]ccc5c4)c3)CC2)=C(c2ccc(Cl)cc2)C1 [Venetoclax] (first compound max 1 µM, 7x7, partner max 1 µM)
0.0107
Cc1cc2ncnn2cc1Nc1ncc2c(n1)n(C1CCOCC1)c(=O)n2C [AZD7648] + C=CCn1c(=O)c2cnc(Nc3ccc(N4CCN(C)CC4)cc3)nc2n1-c1cccc(C(C)(C)O)n1 [AZD1775] (first compound max 10 µM, partner max 1 µM)
-0.032
CN(CCO)CC[C@H](CSc1ccccc1)Nc1ccc(S(=O)(=O)NC(=O)c2ccc(N3CCC([C@@H](O)c4ccccc4-c4ccc(Cl)cc4)CC3)cc2)cc1S(=O)(=O)C(F)(F)F [AZD4320] + CS(=O)(=O)CCNCc1ccc(-c2ccc3ncnc(Nc4ccc(OCc5cccc(F)c5)c(Cl)c4)c3c2)o1 [Lapatinib] (first compound max 1 µM, 7x7, partner max 10 µM)
0.0405

I have this compound here, COc1nnc2ccc(N3CCC(c4ccc(OCCN5CCN(C)C(=O)[C@H]5C)cc4)CC3)nn12 [AZD5153] + C=CCn1c(=O)c2cnc(Nc3ccc(N4CCN(C)CC4)cc3)nc2n1-c1cccc(C(C)(C)O)n1 [AZD1775] (first compound max 1 µM, partner max 1 µM) , and I need its recorded Bliss excess. -0.0866

# input compound: CC(=O)c1c(C)c2cnc(Nc3ccc(N4CCNCC4)cn3)nc2n(C2CCCC2)c1=O [Palbociclib] + CC1(C)CCC(CN2CCN(c3ccc(C(=O)NS(=O)(=O)c4ccc(NCC5CCOCC5)c([N+](=O)[O-])c4)c(Oc4cnc5[nH]ccc5c4)c3)CC2)=C(c2ccc(Cl)cc2)C1 [Venetoclax] (first compound max 10 µM, 7x7, partner max 1 µM) ; wanted: its Bliss excess -0.0498

Name the recorded Bliss excess for CC1(C)CCC(CN2CCN(c3ccc(C(=O)NS(=O)(=O)c4ccc(NCC5CCOCC5)c([N+](=O)[O-])c4)c(Oc4cnc5[nH]ccc5c4)c3)CC2)=C(c2ccc(Cl)cc2)C1 [Venetoclax] + COc1cc(Nc2ncc3c(n2)-c2ccc(Cl)cc2C(c2c(F)cccc2OC)=NC3)ccc1C(=O)O [Alisertib] (first compound max 1 µM, 7x7, partner max 10 µM) . -0.0062

Fill in: Bliss excess of CN(CCO)CC[C@H](CSc1ccccc1)Nc1ccc(S(=O)(=O)NC(=O)c2ccc(N3CCC([C@@H](O)c4ccccc4-c4ccc(Cl)cc4)CC3)cc2)cc1S(=O)(=O)C(F)(F)F [AZD4320] + C=CCn1c(=O)c2cnc(Nc3ccc(N4CCN(C)CC4)cc3)nc2n1-c1cccc(C(C)(C)O)n1 [AZD1775] (first compound max 1 µM, partner max 1 µM) is ___ -0.0003

Looking for the measured Bliss excess of Cc1c2c(nn1C)CSCc1cc(n(C)n1)CSc1cc(c3ccccc3c1)OCCCc1c(C(=O)O)n(C)c3c-2c(Cl)ccc13 [AZD5991] + Cc1cc2ncnn2cc1Nc1ncc2c(n1)n(C1CCOCC1)c(=O)n2C [AZD7648] (first compound max 1 µM, 7x7, partner max 10 µM) , can you help? -0.0301

Please look up its Bliss excess: Cc1cc2ncnn2cc1Nc1ncc2c(n1)n(C1CCOCC1)c(=O)n2C [AZD7648] + COc1cc([C@@H]2c3cc4c(cc3[C@@H](O[C@@H]3O[C@@H]5CO[C@@H](C)O[C@H]5[C@H](O)[C@H]3O)[C@H]3COC(=O)[C@H]23)OCO4)cc(OC)c1O [Etoposide] (first compound max 10 µM, 7x7, partner max 10 µM) 0.135

Given Cn1cnc2c(F)c(Nc3ccc(Br)cc3Cl)c(C(=O)NOCCO)cc21 [Selumetinib] + C[C@@H]1COCCN1C2=NC(=NC(=C2)C3(CC3)[S@](=N)(=O)C)C4=C5C=CNC5=NC=C4 [AZD6738] (first compound max 10 µM, 7x7, partner max 10 µM) , state its recorded Bliss excess. -0.0041

###

# System: CAL-51 (Breast Carcinoma)
# MEASUREMENT_PROTOCOL: combination Emax (second highest fraction inhibited in the dose matrix, 72 h); higher = more inhibition; extreme values may be limits of the assay
Documented combination Emax across a set of molecules
Respond with the number and no other words.

Cc1cc2ncnn2cc1Nc1ncc2c(n1)n(C1CCOCC1)c(=O)n2C [AZD7648] + CN(C)CCCOc1ccc(-c2ccc3ncc4c(c3c2)n(C2CCOCC2)c(=O)n4C)cn1 [AZD0156] (first compound max 10 µM, 7x7, partner max 1 µM)
0.274

Turning now to a further molecule:
Entry CN(C)CCCOc1ccc(-c2ccc3ncc4c(c3c2)n(C2CCOCC2)c(=O)n4C)cn1 [AZD0156] + C=CCn1c(=O)c2cnc(Nc3ccc(N4CCN(C)CC4)cc3)nc2n1-c1cccc(C(C)(C)O)n1 [AZD1775] (first compound max 1 µM, partner max 1 µM) : reported combination Emax = ? 0.728

###

# Tested on: HARA (Squamous Cell Lung Carcinoma)
# MEASUREMENT_PROTOCOL: Bliss excess, mean over the matrix (fraction); higher = more synergy
QUANTITY: Bliss excess
Lab note: jot the number down without any unit.

Illustrative cases are given below, each with its answer.
CN(C)CCCOc1ccc(-c2ccc3ncc4c(c3c2)n(C2CCOCC2)c(=O)n4C)cn1 [AZD0156] + CCN(CCO)CCCOc1ccc2c(Nc3cc(CC(=O)Nc4cccc(F)c4)[nH]n3)ncnc2c1 [AZD2811] (first compound max 1 µM, 7x7, partner max 1 µM)
0.0136
Cc1c2c(nn1C)CSCc1cc(n(C)n1)CSc1cc(c3ccccc3c1)OCCCc1c(C(=O)O)n(C)c3c-2c(Cl)ccc13 [AZD5991] + C1CN(CCC1(C(=O)N[C@@H](CCO)C2=CC=C(C=C2)Cl)N)C3=NC=NC4=C3C=CN4 [Capivasertib] (first compound max 1 µM, 7x7, partner max 3 µM)
-0.0041

Let us examine a further case.
Fill in the blank: the reported Bliss excess of CN(CCO)CC[C@H](CSc1ccccc1)Nc1ccc(S(=O)(=O)NC(=O)c2ccc(N3CCC([C@@H](O)c4ccccc4-c4ccc(Cl)cc4)CC3)cc2)cc1S(=O)(=O)C(F)(F)F [AZD4320] + C1CN(CCC1(C(=O)N[C@@H](CCO)C2=CC=C(C=C2)Cl)N)C3=NC=NC4=C3C=CN4 [Capivasertib] (first compound max 1 µM, 7x7, partner max 3 µM) is ____. -0.0268
